The following compounds have recorded Minimum inhibitory concentration, Ec FADDI-EC003 on Enterobacter cloacae.
Positions of bridges follow the written chain, without caps; N, C: chain ends. Non-standard residues stand in square brackets, D forms with d. Residues, ends and D or L forms follow the SMILES beside them. *: point of attachment. X30 = Cc1cc(C)c(C(=O)*)c(C)c1; Dab = NCC[C@H](N)C(=O)O; Abu = CC[C@H](N)C(=O)O; Dap = NC[C@H](N)C(=O)O; X34 = Cc1ccccc1CC(=O)*
Express your answer in µg/mL, writing the number without its unit.

CC[C@@H]1NC(=O)[C@@H](CC(C)C)NC(=O)[C@H](CCN)NC(=O)[C@@H](NC(=O)[C@H](CN)NC(=O)[C@@H](NC(=O)[C@H](CCN)NC(=O)Cc2ccccc2C)[C@@H](C)O)CCNC(=O)[C@H]([C@@H](C)O)NC(=O)[C@H](CCN)NC(=O)[C@H](CCN)NC1=O [Compound 76] (X34-[Dab]T[Dap][Dab][Dab][dL][Abu][Dab][Dab]T; lactam 4-C): 0.25

Consider the record given below.
Enterobacter cloacae / Minimum inhibitory concentration, Ec FADDI-EC003 / CC[C@@H]1NC(=O)[C@@H](CC(C)C)NC(=O)[C@H](CCN)NC(=O)[C@@H](NC(=O)[C@H](CN)NC(=O)[C@@H](NC(=O)[C@H](CCN)NC(=O)c2c(C)cc(C)cc2C)[C@@H](C)O)CCNC(=O)[C@H]([C@@H](C)O)NC(=O)[C@H](CCN)NC(=O)[C@H](CCN)NC1=O [Compound 92] (X30-[Dab]T[Dap][Dab][Dab][dL][Abu][Dab][Dab]T; lactam 4-C) : value?
0.25

----------
Test system: Enterobacter cloacae
Procedure: MICs of the lipopeptides (trifluoroacetic acid salt, TFA) were determined by broth microdilution in cation-adjusted Mueller-Hinton broth (CAMHB) (Oxoid Australia, Thebarton, SA, Australia) according to Clinical and Laboratory Standards Institute standards (Clinical and Laboratory Standards Institute. Performance standards for antimicrobial susceptibility testing; eighteenth informational supplement M100-S18. Wayne, Pa., 2008). Polymyxin B (sulphate) was employed as control. […]
Positions of bridges follow the written chain, without caps; N, C: chain ends. Non-standard residues stand in square brackets, D forms with d. Residues, ends and D or L forms follow the SMILES beside them. *: point of attachment. Benzoyl(4-Ph) = O=C(c1ccc(-c2ccccc2)cc1)*; Benzoyl(4-Et) = CCc1ccc(C(=O)*)cc1; X21 = O=C(c1ccc(C(F)(F)F)c(Cl)c1)*; X19 = Cc1cc(Cl)cc(C(=O)*)c1; Decanoyl = CCCCCCCCCC(=O)*; Nonanoyl = CCCCCCCCC(=O)*; Octanoyl = CCCCCCCC(=O)*; Dab = NCC[C@H](N)C(=O)O; Abu = CC[C@H](N)C(=O)O; Dap = NC[C@H](N)C(=O)O; X27 = Cc1ccccc1C(=O)*
Reported Endpoint: Minimum inhibitory concentration, Ec FADDI-EC003 (µg/mL)
Express your answer in µg/mL, writing the number without its unit.

Examples with their reported Minimum inhibitory concentration, Ec FADDI-EC003 follow.
CC[C@@H]1NC(=O)[C@@H](CC(C)C)NC(=O)[C@H](CCN)NC(=O)[C@@H](NC(=O)[C@H](CN)NC(=O)[C@@H](NC(=O)[C@H](CCN)NC(=O)c2ccccc2C)[C@@H](C)O)CCNC(=O)[C@H]([C@@H](C)O)NC(=O)[C@H](CCN)NC(=O)[C@H](CCN)NC1=O [Compound 75] (X27-[Dab]T[Dap][Dab][Dab][dL][Abu][Dab][Dab]T; lactam 4-C): 0.25
CC[C@@H]1NC(=O)[C@@H](CC(C)C)NC(=O)[C@H](CCN)NC(=O)[C@@H](NC(=O)[C@H](CN)NC(=O)[C@@H](NC(=O)[C@H](CCN)NC(=O)c2ccc(C(F)(F)F)c(Cl)c2)[C@@H](C)O)CCNC(=O)[C@H]([C@@H](C)O)NC(=O)[C@H](CCN)NC(=O)[C@H](CCN)NC1=O [Compound 115] (X21-[Dab]T[Dap][Dab][Dab][dL][Abu][Dab][Dab]T; lactam 4-C): 0.25
CCCCCCCC(=O)N[C@@H](CCN)C(=O)N[C@H](C(=O)N[C@@H](CCN)C(=O)N[C@H]1CCNC(=O)[C@H]([C@@H](C)O)NC(=O)[C@H](CCN)NC(=O)[C@H](CCN)NC(=O)[C@H](CO)NC(=O)[C@@H](CC(C)C)NC(=O)[C@H](CCN)NC1=O)[C@@H](C)O [Compound 25] (Octanoyl-[Dab]T[Dab][Dab][Dab][dL]S[Dab][Dab]T; lactam 4-C): 0.25

Endpoint output: Minimum inhibitory concentration, Ec FADDI-EC003 of CCCCCCCCC(=O)N[C@@H](CCN)C(=O)N[C@H](C(=O)N[C@@H](CN)C(=O)N[C@H]1CCNC(=O)[C@H]([C@@H](C)O)NC(=O)[C@H](CCN)NC(=O)[C@H](CCN)NC(=O)[C@H]([C@@H](C)O)NC(=O)[C@@H](CC(C)C)NC(=O)[C@H](CCN)NC1=O)[C@@H](C)O [Compound 58] (Nonanoyl-[Dab]T[Dap][Dab][Dab][dL]T[Dab][Dab]T; lactam 4-C) . Value?
0.25

Endpoint output: Minimum inhibitory concentration, Ec FADDI-EC003 of CCCCCCCCCC(=O)N[C@@H](CCN)C(=O)N[C@H](C(=O)N[C@@H](CN)C(=O)N[C@H]1CCNC(=O)[C@H]([C@@H](C)O)NC(=O)[C@H](CCN)NC(=O)[C@H](CCN)NC(=O)[C@H](C(C)C)NC(=O)[C@@H](CC(C)C)NC(=O)[C@H](CCN)NC1=O)[C@@H](C)O [Compound 39] (Decanoyl-[Dab]T[Dap][Dab][Dab][dL]V[Dab][Dab]T; lactam 4-C) . Value?
0.5

Endpoint output: Minimum inhibitory concentration, Ec FADDI-EC003 of CCCCCCCCCC(=O)N[C@@H](CCN)C(=O)N[C@H](C(=O)N[C@@H](CCN)C(=O)N[C@H]1CCNC(=O)[C@H]([C@@H](C)O)NC(=O)[C@H](CCN)NC(=O)[C@H](CCN)NC(=O)[C@H](C)NC(=O)[C@@H](CC(C)C)NC(=O)[C@H](CCN)NC1=O)[C@@H](C)O [Compound 40] (Decanoyl-[Dab]T[Dab][Dab][Dab][dL]A[Dab][Dab]T; lactam 4-C) . Value?
0.25

Endpoint output: Minimum inhibitory concentration, Ec FADDI-EC003 of CC[C@@H]1NC(=O)[C@@H](CC(C)C)NC(=O)[C@H](CCN)NC(=O)[C@@H](NC(=O)[C@H](CN)NC(=O)[C@@H](NC(=O)[C@H](CCN)NC(=O)c2cc(C)cc(Cl)c2)[C@@H](C)O)CCNC(=O)[C@H]([C@@H](C)O)NC(=O)[C@H](CCN)NC(=O)[C@H](CCN)NC1=O [Compound 114] (X19-[Dab]T[Dap][Dab][Dab][dL][Abu][Dab][Dab]T; lactam 4-C) . Value?
0.25

Endpoint output: Minimum inhibitory concentration, Ec FADDI-EC003 of CCc1ccc(C(=O)N[C@@H](CCN)C(=O)N[C@H](C(=O)N[C@@H](CN)C(=O)N[C@H]2CCNC(=O)[C@H]([C@@H](C)O)NC(=O)[C@H](CCN)NC(=O)[C@H](CCN)NC(=O)[C@H](CC)NC(=O)[C@@H](CC(C)C)NC(=O)[C@H](CCN)NC2=O)[C@@H](C)O)cc1 [Compound 100] ({Benzoyl(4-Et)}-[Dab]T[Dap][Dab][Dab][dL][Abu][Dab][Dab]T; lactam 4-C) . Value?
0.5

Endpoint output: Minimum inhibitory concentration, Ec FADDI-EC003 of CC(C)C[C@H]1NC(=O)[C@H](CCN)NC(=O)[C@@H](NC(=O)[C@@H](CO)NC(=O)[C@@H](NC(=O)[C@H](CCN)NC(=O)c2ccc(-c3ccccc3)cc2)[C@@H](C)O)CCNC(=O)[C@H]([C@@H](C)O)NC(=O)[C@H](CCN)NC(=O)[C@H](CCN)NC(=O)[C@H]([C@@H](C)O)NC1=O [Compound 11] ({Benzoyl(4-Ph)}-[Dab]T[dS][Dab][Dab][dL]T[Dab][Dab]T; lactam 4-C) . Value?
0.5

----------
Tested on: Enterobacter cloacae
Positions of bridges follow the written chain, without caps; N, C: chain ends. Non-standard residues stand in square brackets, D forms with d. Residues, ends and D or L forms follow the SMILES beside them. *: point of attachment. Octanoyl = CCCCCCCC(=O)*; Dab = NCC[C@H](N)C(=O)O; Abu = CC[C@H](N)C(=O)O; Dap = NC[C@H](N)C(=O)O
Reported Endpoint: Minimum inhibitory concentration, Ec FADDI-EC003 (µg/mL)
Express your answer in µg/mL, writing the number without its unit.

CCCCCCCC(=O)N[C@@H](CCN)C(=O)N[C@H](C(=O)N[C@@H](CN)C(=O)N[C@H]1CCNC(=O)[C@H]([C@@H](C)O)NC(=O)[C@H](CCN)NC(=O)[C@H](CCN)NC(=O)[C@H](CC)NC(=O)[C@@H](CC(C)C)NC(=O)[C@H](CCN)NC1=O)[C@@H](C)O [Compound 46] (Octanoyl-[Dab]T[Dap][Dab][Dab][dL][Abu][Dab][Dab]T; lactam 4-C): 0.25

Consider the record given below.
Enterobacter cloacae / Minimum inhibitory concentration, Ec FADDI-EC003 / CCCCCCCC(=O)N[C@@H](CCN)C(=O)N[C@H](C(=O)N[C@H](CO)C(=O)N[C@H]1CCNC(=O)[C@H]([C@@H](C)O)NC(=O)[C@H](CCN)NC(=O)[C@H](CCN)NC(=O)[C@H](CO)NC(=O)[C@@H](CC(C)C)NC(=O)[C@H](CCN)NC1=O)[C@@H](C)O [Compound 6] (Octanoyl-[Dab]T[dS][Dab][Dab][dL]S[Dab][Dab]T; lactam 4-C) : value?
0.25
